Sourced from patent US20150203579A1

Measured koff accompanies every entry in the list below.
Target: T1, recombinant cynomolgus monkey PD-1 expressed with a C-terminal myc-myc-hexahistidine tag (cynomolgus monkey (Macaca fascicularis))
T1 construct: monomeric; also called MfPD-1-MMH
T1 chain: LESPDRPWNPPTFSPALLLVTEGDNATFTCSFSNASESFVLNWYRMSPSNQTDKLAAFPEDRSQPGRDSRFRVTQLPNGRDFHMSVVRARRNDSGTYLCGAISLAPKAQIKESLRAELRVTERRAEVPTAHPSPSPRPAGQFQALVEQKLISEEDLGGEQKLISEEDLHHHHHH
Test: SPR, mAb captured, 25C;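 further: rates from fitting Biacore data for PD-1 binding to anti-PD-1 antibodies with a 1:1 model, KD computed as koff/kon and t½ as ln2/(60·koff)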
A number alone suffices; assume s⁻¹.

BINDER: H2aM7795N (antibody, mouse IgG2a, V domains shown, Human variable regions, mouse IgG2a Fc; also called H2M7795N) VH: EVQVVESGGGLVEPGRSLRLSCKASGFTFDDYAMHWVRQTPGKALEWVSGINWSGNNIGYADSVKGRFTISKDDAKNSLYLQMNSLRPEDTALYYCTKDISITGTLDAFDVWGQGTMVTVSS VL: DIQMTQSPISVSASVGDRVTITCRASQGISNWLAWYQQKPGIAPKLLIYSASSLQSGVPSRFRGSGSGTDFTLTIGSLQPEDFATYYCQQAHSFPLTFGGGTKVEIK
koff [s⁻¹]: 0.000889

Notebook: H4H7795N2 (antibody, human IgG4 S228P, kappa, V domains shown) VH: EVQVVESGGGLVEPGRSLRLSCKASGFTFDDYAMHWVRQTPGKALEWVSGISWSGNNIGYADSVKGRFTISKDDAKNSLYLQMNSLRPEDTALYYCTKDISITGTLDAFDVWGQGTMVTVSS VL: DIQMTQSPISVSASVGDRVTITCRASQGISNWLAWYQQKPGIAPKLLIYSASSLQSGVPSRFRGSGSGTDFTLTIGSLQPEDFATYYCQQAHSFPLTFGGGTKVEIKR , koff read as 0.00148
